test system: L 1210 Leukämiezellen; assay: Cytotoxicity against L 1210 leukemia cells (stem cell assay, SCA; colony formation in soft agar); format: cell-based, Maus; conditions: Mus musculus, L1210, read-out: IC₅₀ SCA L 1210 1 h
Quantity Kind: IC50 (µg/mL)
I only need the number, in µg/mL, no unit after it.

Sample answers from the record:
| Molecule | Output Unit | IC50 |
| --- | --- | --- |
| COc1cc(OC)cc(C(C)(C)OC(=O)N[C@H]2C[C@H](O[C@H]3C[C@](O)(C(=O)CO)Cc4c(O)c5c(c(O)c43)C(=O)c3c(OC)cccc3C5=O)O[C@@H](C)[C@H]2OC2CCCCO2)c1 (stereo partly shown) | µg/mL | 5.3 |
| COc1cc(OC)cc(C(C)(C)OC(=O)N[C@H]2C[C@H](O[C@H]3C[C@](O)(C(=O)CO)Cc4c(O)c5c(c(O)c43)C(=O)c3c(OC)cccc3C5=O)O[C@@H](C)[C@H]2O)c1 | µg/mL | 6.4 |
| COc1cc(OC)cc(C(C)(C)OC(=O)N[C@H]2C[C@H](O[C@H]3C[C@](O)(C(C)=O)Cc4c(O)c5c(c(O)c43)C(=O)c3c(OC)cccc3C5=O)O[C@@H](C)[C@H]2O)c1 | µg/mL | 4.5 |

Let us examine a further case.
Query the reported IC50 for L 1210 Leukämiezellen; item: CC[C@@]1(O)C[C@H](O[C@H]2C[C@H](NC(=O)OC(C)(C)c3cc(OC)cc(OC)c3)[C@H](O)[C@H](C)O2)c2c(O)c3c(c(O)c2[C@H]1O)C(=O)c1cccc(O)c1C3=O 0.47

----------
system: A 549; test: Proliferation test (MTT reduction), A 549; format: cell-based; details: Homo sapiens, A549, 72 h, read-out: IC₅₀ MTT A 549
Quick reference for IC50 among some compounds

Sample answers from the record:
| Compound | IC50 |
| --- | --- |
| COc1cc(OC)cc(C(C)(C)OC(=O)N[C@H]2C[C@H](O[C@H]3C[C@](O)(C(=O)CO)Cc4c(O)c5c(c(O)c43)C(=O)c3c(OC)cccc3C5=O)O[C@@H](C)[C@H]2O)c1 | 0.11 µg/mL |
| COc1cc(OC)cc(C(C)(C)OC(=O)N[C@H]2C[C@H](O[C@H]3C[C@](O)(C(=O)CO)Cc4c(O)c5c(c(O)c43)C(=O)c3c(OC)cccc3C5=O)O[C@@H](C)[C@@H]2O)c1 | 0.04 µg/mL |
| COc1cc(OC)cc(C(C)(C)OC(=O)N[C@H]2C[C@H](O[C@H]3C[C@](O)(C(C)=O)Cc4c(O)c5c(c(O)c43)C(=O)c3c(OC)cccc3C5=O)O[C@@H](C)[C@H]2O)c1 | 0.13 µg/mL |
| CC[C@@]1(O)C[C@H](O[C@H]2C[C@H](NC(=O)OC(C)(C)c3cc(OC)cc(OC)c3)[C@H](O)[C@H](C)O2)c2c(O)c3c(c(O)c2[C@H]1O)C(=O)c1cccc(O)c1C3=O | < 0.004 µg/mL |

For the compound shown here, COc1cc(OC)cc(C(C)(C)OC(=O)N[C@H]2C[C@H](O[C@H]3C[C@](O)(C(=O)CO)Cc4c(O)c5c(c(O)c43)C(=O)c3c(OC)cccc3C5=O)O[C@@H](C)[C@H]2OC2CCCCO2)c1 (some centres unmarked) , give the reported IC50. 0.023 µg/mL
